Source: ChEMBL document CHEMBL4266055

- TARGET SYSTEM: UniProt P55072
- METHOD SUMMARY: Inhibition of recombinant full length human p97 (1 to 806 residues) expressed in Escherichia coli Rosetta 2 (DE3) using 20 uM ATP as substrate after 90 mins by luminescence assay
ENDPOINT: pIC50
Would you please state pIC50, meaning minus log10 of the concentration in mol/L, as a bare number?

Let me know recorded pIC50 for `Cn1ncnc1CCNC1CCN(c2cccc(-c3cc4ccccc4[nH]3)c2)CC1` , thanks.
5.62

* * *

- TARGET SYSTEM: Transitional endoplasmic reticulum ATPase (Homo sapiens)
- Sequence (P55072 whole entry): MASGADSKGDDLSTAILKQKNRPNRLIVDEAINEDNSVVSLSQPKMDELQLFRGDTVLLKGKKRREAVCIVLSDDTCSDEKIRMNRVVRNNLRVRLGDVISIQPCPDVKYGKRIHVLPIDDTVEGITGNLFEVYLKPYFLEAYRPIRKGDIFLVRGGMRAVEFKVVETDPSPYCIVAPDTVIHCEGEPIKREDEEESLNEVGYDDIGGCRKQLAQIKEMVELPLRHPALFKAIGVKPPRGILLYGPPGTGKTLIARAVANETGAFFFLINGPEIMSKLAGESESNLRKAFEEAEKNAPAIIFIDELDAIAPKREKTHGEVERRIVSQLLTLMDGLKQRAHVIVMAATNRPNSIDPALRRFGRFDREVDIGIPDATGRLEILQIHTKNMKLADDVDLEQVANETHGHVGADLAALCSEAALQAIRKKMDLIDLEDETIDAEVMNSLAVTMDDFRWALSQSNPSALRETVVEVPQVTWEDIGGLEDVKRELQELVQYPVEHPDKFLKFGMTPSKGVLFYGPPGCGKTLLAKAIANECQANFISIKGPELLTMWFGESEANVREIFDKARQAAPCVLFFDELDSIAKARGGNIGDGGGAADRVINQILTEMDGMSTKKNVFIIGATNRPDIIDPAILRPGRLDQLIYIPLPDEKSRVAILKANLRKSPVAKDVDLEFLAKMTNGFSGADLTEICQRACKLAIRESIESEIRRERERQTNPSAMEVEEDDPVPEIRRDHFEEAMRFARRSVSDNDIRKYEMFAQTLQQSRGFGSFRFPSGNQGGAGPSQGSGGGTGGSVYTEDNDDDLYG
- METHOD SUMMARY: Inhibition of human p97 in human HeLa cells harboring UbG76V-GFP assessed as accumulation of UbG76V after 6 hrs by microscopic analysis
- Assay type: cell-based
ENDPOINT: EC50

{"columns": ["SMILES REPRESENTATION", "EC50"],
 "data": [
  ["CC(C)N1CCC(NC2CCN(c3cccc(-c4cc5cc(F)ccc5[nH]4)c3)CC2)CC1", "> 40 µM"]
]}

Could you now look at the following compound, please?
// fetch EC50 for `CN1CCN(C2(CNC3CCN(c4cccc(-c5cc6cc(F)ccc6[nH]5)c4)CC3)CCC2)CC1` ; system: Transitional endoplasmic reticulum ATPase (Homo sapiens)
> 40 µM
